System: HOS cells
Protocol Details: cytotoxicity assay (ATP-Lite cell viability)
Type: cell-based, human
Stated Conditions: HOS cells, 48 hours, SD in parentheses
Method: One day prior to treatment, HOS cells were prepared in 96-well plates as described for the infectivity assays, except that 12 wells per plate were treated with cell-free media to serve as negative controls. […] Cell viability was determined using luciferase reporter ATP-Lite kits (PerkinElmer). As described for the infectivity assays, drug-free reference wells were normalized to 100%, and viabilities at different drug concentrations were determined as a percentage of these references. […]
Consider the following compounds; for each one, report its CC50.

The recorded CC50 for `Cc1cc(/C=C/C#N)cc(C)c1Nc1nc(Nc2ccc3scnc3c2)c2nc[nH]c2n1` is > 38 µM

The recorded CC50 for `Cc1cc(/C=C/C#N)cc(C)c1-n1cnc2cnc(Nc3ccc(C#N)cc3)nc21` is > 38 µM

The recorded CC50 for `Cc1cc(/C=C/C#N)cc(C)c1Nc1nc(Nc2ccc(C#N)cc2)ncc1N` is > 38 µM

The measured values listed here are drawn from paper PMC3549755.
